- SYSTEM_NAME: P2X4R (Rattus norvegicus)
- Sequence (P51577 whole entry): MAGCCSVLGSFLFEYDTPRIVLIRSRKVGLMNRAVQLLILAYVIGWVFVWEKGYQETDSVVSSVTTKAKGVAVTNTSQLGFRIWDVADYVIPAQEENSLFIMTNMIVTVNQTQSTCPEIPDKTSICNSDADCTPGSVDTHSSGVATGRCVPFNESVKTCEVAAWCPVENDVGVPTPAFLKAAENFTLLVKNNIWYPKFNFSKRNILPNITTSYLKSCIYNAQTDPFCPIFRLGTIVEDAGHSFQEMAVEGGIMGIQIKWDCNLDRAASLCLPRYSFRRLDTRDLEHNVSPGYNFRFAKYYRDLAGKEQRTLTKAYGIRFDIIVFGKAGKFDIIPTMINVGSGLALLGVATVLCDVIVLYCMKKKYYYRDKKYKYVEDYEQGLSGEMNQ
- TEST_CONTEXT: ATP alone; oocytes; Hill equation
OBSERVATION_TYPE: EC50 (µM)
I only need the number, in µM, no unit after it.

Give the value of EC50 reported for the following: Nc1ncnc2c1ncn2[C@@H]1O[C@H](COP(=O)([O-])OP(=O)([O-])OP(=O)([O-])O)[C@@H](O)[C@H]1O.[Na+].[Na+].[Na+] [ATP, ATP tri sodium salt] 11

###

- SYSTEM_NAME: P2X2bR (Rattus norvegicus, UniProt P49653, DEL370-438)
- Sequence (P49653 with tags, fused parts or gaps DEL370-438): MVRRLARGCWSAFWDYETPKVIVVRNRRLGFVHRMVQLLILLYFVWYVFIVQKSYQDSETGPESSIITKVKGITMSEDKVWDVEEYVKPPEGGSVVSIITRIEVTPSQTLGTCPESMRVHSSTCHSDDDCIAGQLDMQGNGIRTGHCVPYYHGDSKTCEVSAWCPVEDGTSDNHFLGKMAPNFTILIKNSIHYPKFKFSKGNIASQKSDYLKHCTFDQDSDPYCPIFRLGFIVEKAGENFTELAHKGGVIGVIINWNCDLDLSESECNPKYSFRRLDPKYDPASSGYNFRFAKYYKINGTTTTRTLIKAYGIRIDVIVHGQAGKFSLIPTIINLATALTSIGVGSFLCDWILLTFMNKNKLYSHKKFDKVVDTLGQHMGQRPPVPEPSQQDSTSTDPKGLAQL
- Format: cell-based
- TEST_CONTEXT: ATP alone; oocytes; Hill equation
OBSERVATION_TYPE: EC50
Remember to quote the unit after the number.

Consider the molecule Nc1ncnc2c1ncn2[C@@H]1O[C@H](COP(=O)([O-])OP(=O)([O-])OP(=O)([O-])O)[C@@H](O)[C@H]1O.[Na+].[Na+].[Na+] [ATP, ATP tri sodium salt] . State its measured EC50. 59.2 µM
